Test target: Estrogen Receptor (ERα) in MCF-7 cells (Homo sapiens (Human))
Experiment summary: MCF-7 ER down-regulation assay (immuno-fluorescence)
Reported values of pIC50 for individual entries
API: returns pIC50 as number; meaning -log10 of concentration in mol/L.

Worked set:
CCc1ccc(OCCNCCCF)cc1[C@@H]1c2[nH]c3ccccc3c2C[C@@H](C)N1CC(F)(F)F [Example 21]
8.80
CC(CN1[C@H](c2c(Cl)ccc(OCCNCCCF)c2Cl)c2[nH]c3ccc(F)cc3c2C[C@H]1C)C(=O)O (single isomer, unassigned) [Example 130]
8.89

[in] Report value: pIC50, system: Estrogen Receptor (ERα) in MCF-7 cells (Homo sapiens (Human)), compound: C[C@@H]1Cc2c([nH]c3ccccc23)[C@@H](c2c(F)ccc(OCCNCCCF)c2C(F)F)N1C[C@H](C)C(=O)O [Example 125]
[out] 9.21

----------
Here's a batch of molecules along with measured IC50 for UniProt Q12809.
Sequence (Q12809 whole entry): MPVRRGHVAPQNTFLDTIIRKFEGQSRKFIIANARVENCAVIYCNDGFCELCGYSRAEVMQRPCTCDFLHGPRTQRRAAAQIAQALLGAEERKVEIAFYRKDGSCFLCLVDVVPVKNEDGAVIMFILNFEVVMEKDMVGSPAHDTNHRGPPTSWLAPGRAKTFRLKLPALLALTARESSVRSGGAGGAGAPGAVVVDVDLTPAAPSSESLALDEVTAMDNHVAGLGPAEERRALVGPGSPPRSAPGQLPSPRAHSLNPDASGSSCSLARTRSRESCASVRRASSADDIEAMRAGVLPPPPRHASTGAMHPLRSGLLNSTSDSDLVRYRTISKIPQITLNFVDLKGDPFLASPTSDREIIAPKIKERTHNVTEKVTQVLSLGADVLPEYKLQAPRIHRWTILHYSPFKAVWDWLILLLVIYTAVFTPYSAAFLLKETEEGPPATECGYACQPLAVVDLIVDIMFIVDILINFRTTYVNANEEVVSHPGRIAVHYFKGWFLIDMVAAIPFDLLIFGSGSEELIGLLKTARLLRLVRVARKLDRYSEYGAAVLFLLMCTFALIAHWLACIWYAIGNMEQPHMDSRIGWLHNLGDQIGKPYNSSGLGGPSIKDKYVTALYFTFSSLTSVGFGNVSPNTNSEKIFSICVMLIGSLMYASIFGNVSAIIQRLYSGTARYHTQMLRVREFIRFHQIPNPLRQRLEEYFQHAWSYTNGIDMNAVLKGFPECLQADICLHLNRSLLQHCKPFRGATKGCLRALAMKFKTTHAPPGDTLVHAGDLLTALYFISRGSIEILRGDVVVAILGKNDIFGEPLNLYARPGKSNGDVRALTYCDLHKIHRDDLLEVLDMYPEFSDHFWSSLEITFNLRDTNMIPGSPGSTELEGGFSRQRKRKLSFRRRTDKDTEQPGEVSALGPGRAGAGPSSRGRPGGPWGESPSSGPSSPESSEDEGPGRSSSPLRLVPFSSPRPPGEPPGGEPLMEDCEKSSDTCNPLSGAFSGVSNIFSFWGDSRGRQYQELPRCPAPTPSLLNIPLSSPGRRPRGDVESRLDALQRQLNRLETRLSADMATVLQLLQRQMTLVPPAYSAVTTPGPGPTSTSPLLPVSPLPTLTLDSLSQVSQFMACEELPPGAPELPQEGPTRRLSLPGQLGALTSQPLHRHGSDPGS
Respond with the bare value in µM.

Worked set:
C[C@@H]1Cc2c([nH]c3ccc(F)cc23)[C@@H](c2c(F)ccc(NCCNCCCF)c2F)N1CC(F)(F)CO
6.1
C[C@@H]1Cc2c([nH]c3ccccc23)[C@@H](c2c(F)ccc(OCCN(C)CCCF)c2F)N1CC1(F)COC1
4.3

API: the following record is the query input.
[in] Report value: IC50, system: UniProt Q12809, molecule: C[C@@H]1Cc2c([nH]c3ccccc23)[C@@H](c2c(F)c(F)cc(OCCNCCCF)c2F)N1CC(F)(F)F
[out] 5.8

----------
Test target: Estrogen Receptor (ERα) in MCF-7 cells (Homo sapiens (Human))
Experiment summary: MCF-7 ER down-regulation assay (immuno-fluorescence)
Measured property: pIC50
API: returns pIC50 as number; meaning -log10 of concentration in mol/L.

Worked set:
Cc1c([C@@H]2c3[nH]c4ccccc4c3C[C@@H](C)N2C[C@H](C)C(=O)O)ccnc1OCCNCCCF [Example 132]
9.01
Cc1c(OCCNCCCF)ccc(F)c1[C@@H]1c2[nH]c3ccccc3c2C[C@@H](C(F)(F)F)N1C[C@H](C)C(=O)O [Example 140]
9.00
COc1nnc(OCCNCCCF)cc1[C@@H]1c2[nH]c3ccccc3c2C[C@@H](C)N1CC(F)(F)F [Example 112]
9.02
Cc1c([C@@H]2c3[nH]c4ccccc4c3C[C@@H](C)N2C[C@@H](C)C(=O)O)ccnc1OCCN(C)CCCF [Example 161]
8.96
C[C@@H]1Cc2c([nH]c3ccccc23)[C@@H](c2c(F)ccc(OCCN(C)CCCF)c2F)N1CC1(F)COC1 [Example 154]
9.05

[in] # return recorded pIC50 for input COc1ccc(OC[C@@H](C)NCCCF)cc1[C@@H]1c2[nH]c3ccccc3c2C[C@@H](C)N1CC(F)(F)CO [Example 50]
[out] 9.09

----------
Reported values of MCF7 Western % ER deg vs Fv for individual entries
Test target: Estrogen Receptor (ERα) in MCF-7 cells (Homo sapiens (Human), UniProt P03372)
Sequence (P03372 whole entry): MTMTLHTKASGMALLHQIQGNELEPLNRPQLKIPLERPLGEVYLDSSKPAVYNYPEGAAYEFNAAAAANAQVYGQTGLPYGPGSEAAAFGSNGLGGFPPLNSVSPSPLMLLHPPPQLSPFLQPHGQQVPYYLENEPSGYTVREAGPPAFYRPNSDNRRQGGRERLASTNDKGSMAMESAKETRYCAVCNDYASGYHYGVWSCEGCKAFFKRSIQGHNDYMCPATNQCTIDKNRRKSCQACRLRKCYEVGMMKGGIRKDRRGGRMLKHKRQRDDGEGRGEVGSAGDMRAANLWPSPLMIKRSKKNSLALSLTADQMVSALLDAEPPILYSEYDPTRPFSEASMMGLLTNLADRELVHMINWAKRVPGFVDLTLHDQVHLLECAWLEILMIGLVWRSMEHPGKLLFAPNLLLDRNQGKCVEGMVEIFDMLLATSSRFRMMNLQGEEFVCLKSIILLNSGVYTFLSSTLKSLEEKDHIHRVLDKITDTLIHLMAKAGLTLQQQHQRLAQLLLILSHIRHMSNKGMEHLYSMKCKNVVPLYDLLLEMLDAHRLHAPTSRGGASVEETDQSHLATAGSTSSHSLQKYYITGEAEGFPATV
Experiment summary: Western blotting assay, ER down-regulation in MCF-7
Assay type: cell-based
Study conditions: MCF-7, 100 nM compound, 48 h, vs 100 nM fulvestrant
Respond with the bare value in %.

Worked set:
Cc1c(OCCNCCC(F)F)ccc(F)c1[C@@H]1c2[nH]c3ccccc3c2C[C@@H](C)N1C[C@@H](C)C(=O)O
91
C[C@@H]1Cc2c([nH]c3ccccc23)[C@@H](c2nccc(OCCNCCCF)c2F)N1CC(F)(F)CO
89

[in] # return recorded MCF7 Western % ER deg vs Fv for input Cc1c(OCCNCCCF)ccc(F)c1[C@@H]1c2[nH]c3ccccc3c2C[C@@H](C)N1C[C@H](C)C(=O)O
[out] 89
